# key: entry, value: MIC90
# Tested on: Vancomycin Resistant Staphylococcus aureus (VRSA)
# procedure.text: Broth microdilution MIC/MBC, VRSA
# Assay type: cell-based
# condition.description: 15 VRSA strains, read-out: MIC 90

Solved cases (3 shown):
>  <smiles.notation>
O=C(O)[C@H](Cc1ccccc1)N1C(=O)/C(=C/c2cccc(-c3ccc(Cl)c(Cl)c3)c2)SC1=S

>  <MIC90>
4 µM

$$$$
>  <smiles.notation>
O=C(O)[C@@H](Cc1ccccc1)N1C(=O)/C(=C/c2cccc(Cc3ccccc3)c2)SC1=S

>  <MIC90>
16 µM

$$$$
>  <smiles.notation>
O=C(O)[C@H](Cc1ccccc1)N1C(=O)/C(=C/c2cccc(-c3ccccc3)c2)SC1=S

>  <MIC90>
8 µM

$$$$

// below: MIC90 requested for another compound
// MIC90 lookup, key: `O=C(O)[C@@H](Cc1ccccc1)N1C(=O)/C(=C/c2cccc(Oc3ccc(F)cc3)c2)SC1=S`
16 µM

----------
# System: Clostridium difficile
# procedure.text: MIC against Clostridium difficile, anaerobic broth dilution
# Assay type: cell-based
# condition.description: Clostridioides difficile, C. difficile HM-88
Where a name gives a salt, the structure may show the parent alone.
# key: entry, value: MIC
Write the answer as a number in µM, unit excluded.

// MIC lookup, key: O=C(O)[C@H](Cc1ccccc1)N1C(=O)/C(=C/c2cccc(Oc3ccc(Cl)c(Cl)c3)c2)SC1=S [Rh 1]
4

How about O=C(O)[C@H](Cc1ccccc1)N1C(=O)/C(=C/c2cccc(OC/C=C/c3ccc(Cl)c(Cl)c3)c2)SC1=S [Rh 6] ?
4

How about O=C(O)[C@@H](Cc1ccccc1)N1C(=O)/C(=C/c2cccc(Oc3ccc(F)cc3)c2)SC1=S [Rh 4] ?
4

How about O=C(O)[C@H](Cc1ccccc1)N1C(=O)/C(=C/c2cccc(-c3ccccc3)c2)SC1=S [Rh 5] ?
4

How about O=C(O)[C@H](Cc1ccccc1)N1C(=O)/C(=C/c2cccc(Cc3ccc(Cl)c(Cl)c3)c2)SC1=S [Rh 3] ?
2

How about Cc1ncc([N+](=O)[O-])n1CCO [Metronidazole, reference compound] ?
0.25

How about O=C(O)[C@@H](Cc1ccccc1)N1C(=O)/C(=C/c2cccc(Cc3ccccc3)c2)SC1=S [Rh 7] ?
4

How about O=C(O)[C@H](Cc1ccccc1)N1C(=O)/C(=C/c2cccc(-c3ccc(Cl)c(Cl)c3)c2)SC1=S [Rh 2] ?
4

How about CN[C@H](CC(C)C)C(=O)N[C@H]1C(=O)N[C@@H](CC(N)=O)C(=O)N[C@H]2C(=O)N[C@H]3C(=O)N[C@H](C(=O)N[C@H](C(=O)O)c4cc(O)cc(O)c4-c4cc3ccc4O)[C@H](O)c3ccc(c(Cl)c3)Oc3cc2cc(c3O[C@@H]2O[C@H](CO)[C@@H](O)[C@H](O)[C@H]2O[C@H]2C[C@](C)(N)[C@H](O)[C@H](C)O2)Oc2ccc(cc2Cl)[C@H]1O [Vancomycin, vancomycin hydrochloride, reference compound] ?
0.5

----------
# key: entry, value: MBC
# System: Vancomycin Resistant Staphylococcus aureus (VRSA)
# procedure.text: Broth microdilution MIC/MBC, VRSA
# Format: cell-based
# condition.description: VRSA, VRSA 11a, read-out: MBC
Write the answer as a number in µM, unit excluded.

// MBC lookup, key: `O=C(O)[C@@H](Cc1ccccc1)N1C(=O)/C(=C/c2cccc(Cc3ccccc3)c2)SC1=S`
16

How about `O=C(O)[C@H](Cc1ccccc1)N1C(=O)/C(=C/c2cccc(OC/C=C/c3ccc(Cl)c(Cl)c3)c2)SC1=S` ?
64

How about `O=C(O)[C@H](Cc1ccccc1)N1C(=O)/C(=C/c2cccc(-c3ccccc3)c2)SC1=S` ?
16

How about `O=C(O)[C@H](Cc1ccccc1)N1C(=O)/C(=C/c2cccc(-c3ccc(Cl)c(Cl)c3)c2)SC1=S` ?
4

How about `O=C(O)[C@H](Cc1ccccc1)N1C(=O)/C(=C/c2cccc(Oc3ccc(Cl)c(Cl)c3)c2)SC1=S` ?
16

How about `O=C(O)[C@H](Cc1ccccc1)N1C(=O)/C(=C/c2cccc(Cc3ccc(Cl)c(Cl)c3)c2)SC1=S` ?
16

How about `O=C(O)[C@@H](Cc1ccccc1)N1C(=O)/C(=C/c2cccc(Oc3ccc(F)cc3)c2)SC1=S` ?
64

----------
# key: entry, value: MIC
# Tested on: B. cereus
# procedure.text: Broth microdilution MIC/MBC, B. cereus
# Type: cell-based
# condition.description: Bacillus cereus, B. cereus VD014 NR-22141; read-out: MIC
Put down the number, then write its unit next to it.

Solved cases (3 shown):
>  <smiles.notation>
O=C(O)[C@H](Cc1ccccc1)N1C(=O)/C(=C/c2cccc(-c3ccccc3)c2)SC1=S

>  <MIC>
4 µM

$$$$
>  <smiles.notation>
O=C(O)[C@@H](Cc1ccccc1)N1C(=O)/C(=C/c2cccc(Cc3ccccc3)c2)SC1=S

>  <MIC>
4 µM

$$$$
>  <smiles.notation>
O=C(O)[C@@H](Cc1ccccc1)N1C(=O)/C(=C/c2cccc(Oc3ccc(F)cc3)c2)SC1=S

>  <MIC>
8 µM

$$$$

// MIC lookup, key: `O=C(O)[C@H](Cc1ccccc1)N1C(=O)/C(=C/c2cccc(Oc3ccc(Cl)c(Cl)c3)c2)SC1=S`
4 µM

----------
# key: entry, value: MIC
# Tested on: Vancomycin Resistant Staphylococcus aureus (VRSA)
# procedure.text: Broth microdilution MIC/MBC, VRSA
# Type: cell-based
# condition.description: VRSA, VRSA 11b, read-out: MIC
Write the answer as a number in µM, unit excluded.

>  <smiles.notation>
O=C(O)[C@H](Cc1ccccc1)N1C(=O)/C(=C/c2cccc(Oc3ccc(Cl)c(Cl)c3)c2)SC1=S

>  <observation.type>
MIC

>  <reported.result>
8

$$$$
>  <smiles.notation>
O=C(O)[C@H](Cc1ccccc1)N1C(=O)/C(=C/c2cccc(-c3ccc(Cl)c(Cl)c3)c2)SC1=S

>  <observation.type>
MIC

>  <reported.result>
4

$$$$
>  <smiles.notation>
O=C(O)[C@H](Cc1ccccc1)N1C(=O)/C(=C/c2cccc(Cc3ccc(Cl)c(Cl)c3)c2)SC1=S

>  <observation.type>
MIC

>  <reported.result>
8

$$$$
>  <smiles.notation>
O=C(O)[C@@H](Cc1ccccc1)N1C(=O)/C(=C/c2cccc(Oc3ccc(F)cc3)c2)SC1=S

>  <observation.type>
MIC

>  <reported.result>
16

$$$$
>  <smiles.notation>
O=C(O)[C@@H](Cc1ccccc1)N1C(=O)/C(=C/c2cccc(Cc3ccccc3)c2)SC1=S

>  <observation.type>
MIC

>  <reported.result>
8

$$$$
>  <smiles.notation>
O=C(O)[C@H](Cc1ccccc1)N1C(=O)/C(=C/c2cccc(-c3ccccc3)c2)SC1=S

>  <observation.type>
MIC

>  <reported.result>
8

$$$$

// below: MIC requested for another compound
// MIC lookup, key: `O=C(O)[C@H](Cc1ccccc1)N1C(=O)/C(=C/c2cccc(OC/C=C/c3ccc(Cl)c(Cl)c3)c2)SC1=S`
4

----------
# key: entry, value: MBC
# Test system: Vancomycin Resistant Staphylococcus aureus (VRSA)
# procedure.text: Broth microdilution MIC/MBC, VRSA
# Assay type: cell-based
# condition.description: VRSA, VRSA 12, read-out: MBC
Write the answer as a number in µM, unit excluded.

Solved cases (2 shown):
>  <smiles.notation>
O=C(O)[C@H](Cc1ccccc1)N1C(=O)/C(=C/c2cccc(-c3ccc(Cl)c(Cl)c3)c2)SC1=S

>  <unit.tag>
µM

>  <MBC>
32

$$$$
>  <smiles.notation>
O=C(O)[C@H](Cc1ccccc1)N1C(=O)/C(=C/c2cccc(Cc3ccc(Cl)c(Cl)c3)c2)SC1=S

>  <unit.tag>
µM

>  <MBC>
32

$$$$

// MBC lookup, key: `O=C(O)[C@H](Cc1ccccc1)N1C(=O)/C(=C/c2cccc(OC/C=C/c3ccc(Cl)c(Cl)c3)c2)SC1=S`
32

----------
# key: entry, value: MBC
# Test system: Vancomycin Resistant Staphylococcus aureus (VRSA)
# procedure.text: Broth microdilution MIC/MBC, VRSA
# Format: cell-based
# condition.description: VRSA, VRSA 8, read-out: MBC

Solved cases (2 shown):
>  <smiles.notation>
O=C(O)[C@H](Cc1ccccc1)N1C(=O)/C(=C/c2cccc(Cc3ccc(Cl)c(Cl)c3)c2)SC1=S

>  <reported.result>
16 µM

$$$$
>  <smiles.notation>
O=C(O)[C@H](Cc1ccccc1)N1C(=O)/C(=C/c2cccc(OC/C=C/c3ccc(Cl)c(Cl)c3)c2)SC1=S

>  <reported.result>
16 µM

$$$$

// below: MBC requested for another compound
Requested read-out MBC, target or system Vancomycin Resistant Staphylococcus aureus (VRSA), entry `O=C(O)[C@@H](Cc1ccccc1)N1C(=O)/C(=C/c2cccc(Oc3ccc(F)cc3)c2)SC1=S`
32 µM

The origin of these recorded values is paper PMC5053523.
